Assay: Inhibitory activity against LPS-stimulated B cell proliferation.
Type: functional, cell-based, Mus musculus
Entries and their IC50 values follow.

| molecule | IC50, ng/mL |
| --- | --- |
| CCc1cc(C(=O)N[C@@H](CC(F)C(=O)O)C(=O)O)ccc1NCc1cnc2nc(N)nc(N)c2n1 (stereo in doubt; form 1) | 9.7 |
| Cc1cc(C(=O)N[C@@H](CC(F)C(=O)O)C(=O)O)sc1N(C)Cc1cnc2nc(N)nc(N)c2n1 (stereo in doubt; form 2) | 5.1 |
| CN(Cc1cnc2nc(N)nc(N)c2n1)c1ccc(C(=O)N[C@@H](CC(F)C(=O)O)C(=O)O)cc1 (stereo in doubt; 2it) | 61.5 |
| Nc1nc(N)c2nc(CNc3ccc(C(=O)N[C@@H](CC(F)C(=O)O)C(=O)O)cc3Br)cnc2n1 (some centres undefined) | 8.2 |

###

Test: Inhibitory activity against LPS-stimulated B cell proliferation.
Type: functional, cell-based, Mus musculus
Param label: returns Satisfied when IC50 < 0.02 µg/mL, returns Not satisfied otherwise, including exact equality.

| compound | answer_label |
| --- | --- |
| Cc1cc(C(=O)N[C@@H](CC(F)C(=O)O)C(=O)O)ccc1NCc1cnc2nc(N)nc(N)c2n1 (stereo in doubt; form 2) | Satisfied |
| Cc1cc(C(=O)N[C@@H](CC(F)C(=O)O)C(=O)O)sc1N(C)Cc1cnc2nc(N)nc(N)c2n1 (stereo in doubt; form 1) | Satisfied |
| Nc1nc(N)c2nc(CNc3ccc(C(=O)N[C@@H](CC(F)C(=O)O)C(=O)O)cc3C(F)(F)F)cnc2n1 (stereo in doubt; 2ve) | Satisfied |
| CN(Cc1cnc2nc(N)nc(N)c2n1)c1ccc(C(=O)N[C@@H](CC(F)C(=O)O)C(=O)O)cc1 (stereo in doubt; 2ie) | Not satisfied |
| CCCc1cc(C(=O)N[C@@H](CC(F)C(=O)O)C(=O)O)ccc1NCc1cnc2nc(N)nc(N)c2n1 (stereo in doubt; form 1) | Not satisfied |
| CN(Cc1cnc2nc(N)nc(N)c2n1)c1ccc(C(=O)N[C@@H](CCC(=O)O)C(=O)O)cc1 [METHOTREXATE] | Satisfied |

###

Experiment: Compound dose causing lethality in mice
Type: toxicity
Conditions: mouse, in vivo
// reported Lethal dose per item

| compound | measurement_unit | lt_gt_eq | Lethal dose |
| --- | --- | --- | --- |
| CCc1cc(C(=O)N[C@@H](CC(F)C(=O)O)C(=O)O)ccc1NCc1cnc2nc(N)nc(N)c2n1 (stereo in doubt; form 1) | mg/kg | = | 100 |
| Nc1nc(N)c2nc(CNc3ccc(C(=O)N[C@@H](CC(F)C(=O)O)C(=O)O)cc3Br)cnc2n1 (some centres not stated) | mg/kg | > | 200 |
| CCCc1cc(C(=O)N[C@@H](CC(F)C(=O)O)C(=O)O)ccc1NCc1cnc2nc(N)nc(N)c2n1 (stereo in doubt; form 1) | mg/kg | = | 200 |
| Nc1nc(N)c2nc(CNc3ccc(C(=O)N[C@@H](CC(F)C(=O)O)C(=O)O)cc3Cl)cnc2n1 (some centres not stated) | mg/kg | = | 80 |
| Cc1cc(C(=O)N[C@@H](CC(F)C(=O)O)C(=O)O)sc1N(C)Cc1cnc2nc(N)nc(N)c2n1 (stereo in doubt; form 2) | mg/kg | = | 150 |
| CN(Cc1cnc2nc(N)nc(N)c2n1)c1ccc(C(=O)N[C@@H](CC(F)C(=O)O)C(=O)O)cc1 (stereo in doubt; 2ie) | mg/kg | = | 600 |
| Cc1cc(C(=O)N[C@@H](CC(F)C(=O)O)C(=O)O)ccc1NCc1cnc2nc(N)nc(N)c2n1 (stereo in doubt; form 2) | mg/kg | = | 100 |

Numbers sourced from ChEMBL document CHEMBL1130178.
